# Read-out: HGF (gene 3082)
# Assay overview: LTEA_HepaRG_HGF: Life Technologies and Expression Analysis (LTEA) Assay for Hepatocyte Growth Facto (HGF) using HepaRG (AID 2283505)
# Condition: mRNA level, 48 h; actives raise or lower the signal
Activity calls are given as the source filed them. Rule for the calls: active = hit-call score of the fitted dose curve at least 0.9, where 1 is the maximum; inactive = score below 0.9.
Lab note: assign the record to one of active, inactive

Previously resolved entries follow.
OCC(O)CO : inactive
CCCCCCC(CCCCCCCCCCC(=O)OCC(COC(C)=O)OC(C)=O)OC(C)=O (stereo unspecified) : inactive
O=Cc1ccccc1C=O : inactive

Answer briefly: the call reported for CCc1cc(C2=C(C(=O)O)N(c3ccccc3C(F)(F)F)S(=O)(=O)c3ccccc32)cc2c1OCO2 in this assay.
inactive

Status in this test for O=C(O)CN(CC(=O)O)CC(=O)O ?
inactive

Field: outcome | Entry: CCCCc1nc2cccnc2n1Cc1ccc(-c2ccccc2-c2nnn[nH]2)cc1
inactive

Kindly provide the recorded test outcome for the following compound: CC(C)NCC(O)c1ccc(O)c(O)c1 (stereo unspecified)
active

Status in this test for NCCOCCOCCN ?
inactive

Can you look up the reported call for CC(C)COC(=O)CCCCC(=O)OCC(C)C for me?
inactive

Per the assay record, what outcome was assigned to COc1ccc(C(=O)Nc2nc3ccccc3c(NCc3ccccc3)c2C#N)cc1 ?
inactive

Please let me know the test result on file for CC(=O)OCC(COC(C)=O)OC(C)=O .
inactive
